target: T1, GST-fused M1-linked diubiquitin (M1-Ub2) (UniProt P0CG48 1-76; P0CG48 1-76); experiment: SPR; Biacore T200, Sensor Chip C1; GST-fused Ub or Ub2 captured by immobilised anti-GST antibodies (200-400 RU); FAAP20-UBZ injected 60 s at 10 uL/min; 25°C, HBS-P (10 mM HEPES-Na pH 7.4, 150 mM NaCl, 0.05% surfactant P20); equilibrium fit, 1:1 model; triplicate; settings: both partners purified
T1 construct: ubiquitin, first (distal) moiety of the M1-linked (linear, head-to-tail) diubiquitin; ubiquitin, second (proximal) moiety, its Met1 joined to Gly76 of the first; Written as one chain of two ubiquitins, as M1-linked; also called M1-linked Ub2; GST-fused M1-Ub2; source: purified (Glutathione Sepharose FF, ResourceQ)
MEASURED ENDPOINT: Kd (µM)

[[record]]
binder = "AALRSCPMCQKEFAPRLTQLDVDSHLAQCLAESTEDVTW (domain or fragment, human, UniProt Q6NZ36 142-180, looked up, also called FAAP20-UBZ(wt); WT; source: E. coli Rosetta (DE3), purified (Glutathione Sepharose FF, ResourceQ, HRV3C cleavage, Superdex75); not shown: GST, N-terminal, cleaved) [FAAP20-UBZ (UBZ domain of FAAP20, residues 142-180), wild type]"
unit_string = "µM"
observed_measurement = 22.3

